Readings of LDH release, % of control at 50 µM for the listed compounds
Test system: PC-3 cells
PROTOCOL SUMMARY: Cytotoxicity as LDH release in PC-3 cells
Assay type: cell-based, human
ASSAY CONTEXT: Homo sapiens; PC-3, 50 μM, 48 hours treatment; read-out: LDH rel. % con.
The reply should contain only the number, in %.

The following compounds have reported results that may help.
>>> value_observed("Oc1ccc(C=Cc2cc(O)cc(O)c2)cc1")
135
>>> value_observed("O=C1CC(c2ccc(O)cc2)Oc2cc(O)cc(O)c21 (centres unmarked) [Naringenin, 4′,5,7-trihydroxyflavanone]")
107
>>> value_observed("COc1ccc(CCN(C)CCCC(C#N)(c2ccc(OC)c(OC)c2)C(C)C)cc1OC (racemic) [Verapamil, (±)-verapamil, reference compound]")
93
>>> value_observed("O=c1c(O)c(-c2ccc(O)cc2O)oc2cc(O)cc(O)c12")
80
>>> value_observed("Oc1cc(O)c2cc(O)c(-c3ccc(O)c(O)c3)[o+]c2c1")
93
>>> value_observed("O=c1cc(-c2ccccc2)oc2cc(O)ccc12 [7-HF, 7-Hydroxyflavone]")
96

Inquiry: // LDH release, % of control at 50 µM lookup, key: O=c1c(O)c(-c2ccccc2)oc2cc(O)cc(O)c12 [Galangin, 3,5,7 trihydroxyflavone]
Reply text: 140

Inquiry: // LDH release, % of control at 50 µM lookup, key: COc1cc(/C=C/C(=O)CC(=O)/C=C/c2ccc(O)c(OC)c2)ccc1O [Curcumin, reference compound]
Reply text: 180

Inquiry: // LDH release, % of control at 50 µM lookup, key: O=c1cc(-c2ccccc2)oc2cc(O)cc(O)c12 [Chrysin, 5,7 dihydroxyflavone]
Reply text: 132

Inquiry: // LDH release, % of control at 50 µM lookup, key: O=c1c(O)c(-c2ccc(O)c(O)c2)oc2cc(O)ccc12
Reply text: 109

Inquiry: // LDH release, % of control at 50 µM lookup, key: C=C(C)[C@H]1Cc2c(ccc3c2O[C@@H]2COc4cc(OC)c(OC)cc4[C@@H]2C3=O)O1 [Rotenone, reference compound]
Reply text: 180
